Target: human recombinant HDAC6 (Homo sapiens)
Construct: purchased Calbiochem 382180
Sequence (Q9UBN7 1-1215): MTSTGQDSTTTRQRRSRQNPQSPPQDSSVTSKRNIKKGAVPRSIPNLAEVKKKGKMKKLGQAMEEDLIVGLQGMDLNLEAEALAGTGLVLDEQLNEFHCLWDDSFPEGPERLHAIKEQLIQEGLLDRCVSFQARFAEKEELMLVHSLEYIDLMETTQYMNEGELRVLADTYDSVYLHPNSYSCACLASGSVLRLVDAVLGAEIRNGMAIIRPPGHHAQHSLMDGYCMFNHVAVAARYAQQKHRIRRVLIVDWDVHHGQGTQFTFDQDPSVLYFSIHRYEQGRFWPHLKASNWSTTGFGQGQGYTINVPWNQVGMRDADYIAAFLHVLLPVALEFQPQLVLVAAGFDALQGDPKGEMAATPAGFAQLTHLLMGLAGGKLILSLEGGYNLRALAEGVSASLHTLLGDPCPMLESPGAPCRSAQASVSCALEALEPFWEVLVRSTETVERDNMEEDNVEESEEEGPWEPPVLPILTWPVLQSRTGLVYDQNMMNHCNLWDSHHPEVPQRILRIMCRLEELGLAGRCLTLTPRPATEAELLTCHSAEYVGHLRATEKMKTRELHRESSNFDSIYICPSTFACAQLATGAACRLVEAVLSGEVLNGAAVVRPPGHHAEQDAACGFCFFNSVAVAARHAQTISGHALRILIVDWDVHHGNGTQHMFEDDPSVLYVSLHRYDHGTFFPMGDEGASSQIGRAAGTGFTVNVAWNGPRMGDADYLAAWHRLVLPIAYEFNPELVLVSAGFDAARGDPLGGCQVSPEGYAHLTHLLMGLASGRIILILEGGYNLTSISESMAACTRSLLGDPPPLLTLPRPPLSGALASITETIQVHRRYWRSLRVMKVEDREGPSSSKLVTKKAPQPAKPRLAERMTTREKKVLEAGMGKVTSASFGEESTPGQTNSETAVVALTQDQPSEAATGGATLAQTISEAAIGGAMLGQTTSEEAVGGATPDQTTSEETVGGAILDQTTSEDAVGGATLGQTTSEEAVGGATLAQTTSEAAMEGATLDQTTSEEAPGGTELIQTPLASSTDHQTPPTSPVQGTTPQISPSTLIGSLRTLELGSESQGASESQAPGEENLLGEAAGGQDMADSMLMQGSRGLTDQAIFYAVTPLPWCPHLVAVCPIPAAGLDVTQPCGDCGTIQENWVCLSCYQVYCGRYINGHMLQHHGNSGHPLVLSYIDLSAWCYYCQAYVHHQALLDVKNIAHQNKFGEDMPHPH
Experiment: HDAC enzyme activity inhibition assay (HDAC6, fluorimetric kit)
Type: biochemical
Settings: HDAC6 versus HDAC1
recorded endpoint: HDAC6 selectivity (fold)

Completed entries (count: 2):
item smiles	unit label	HDAC6 selectivity (fold)
NC(=O)[C@@H]1CCCN1CC(=O)N(Cc1ccc(-c2nnc(C(F)F)o2)cc1F)c1ccc(F)c(Cl)c1	fold	1587
CN1CC(C(=O)N(Cc2ccc(-c3nnc(C(F)F)o3)cc2F)c2cccc(F)c2)C1	fold	1111

a = CCC(=O)N1CCC(C(=O)N(Cc2ccc(-c3nnc(C(F)F)o3)cc2F)c2ccccc2)CC1
b = CN1CC(C(=O)N(Cc2ccc(-c3nnc(C(F)(F)F)o3)cc2)c2ccccc2)C1
stdin: Could you point out whether the larger HDAC6 selectivity (fold) belongs to a or to b ? Label of pick, please.
stdout: a
